target: human CD3ε expressed on the cell surface of T cells (Jurkat cells; human CD8+ T cells) (human, UniProt P07766 23-207); experiment: cell-based or functional assay
Recorded Fold increase in CD69 expression [MFI normalized to neg. ctrl.], 1.25 µg/ml anti-CD3 IgG for the following binders
Your answer should be a plain number; it is taken to be in fold.

Examples with answers:
clone-06 (antibody, V domains shown, Recombinant rabbit IgG; also called Clone 6) VH: QSVEESGGRLVTPGTPLTLTCTVSGFPLSSYAMIWVRQAPGKGLEWIGMILRAGNIYYASWVKGRVTISKTSTTVDLKITSPTTEDTATYFCARRHYNREGYPIGIGDLWGPGTLVTVSS VL: AQVLTQTPSSVSAAVGGTVTISCQSSESVYNNKRLSWFQQKPGQPPKQLIYTASSLASGVPSRFKGSGSGTQFTLTISDLECDDAATYYCQGEFTCSNADCFTFGGGTEVVVKG
2.7
clone-03 (antibody, V domains shown, Recombinant rabbit IgG; also called Clone 3) VH: QSLEESGGRLVTPGTPLTLTCTVSGFPLNRYAMLWVRQAPGKGLEWIGLITRADKKYYASWAKGRFTISKTSTTVDLEITGPTTEDTATYFCARRHYNTDGYPIAIGDLWGPGTLVTVSS VL: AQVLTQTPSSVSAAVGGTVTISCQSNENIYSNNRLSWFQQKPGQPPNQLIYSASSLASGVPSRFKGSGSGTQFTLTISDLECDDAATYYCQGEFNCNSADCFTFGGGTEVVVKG
2.6

Next:
Query block: What value of Fold increase in CD69 expression [MFI normalized to neg. ctrl.], 1.25 µg/ml anti-CD3 IgG has been recorded for this entry: clone-02 (antibody, V domains shown, Recombinant rabbit IgG; also called Clone 2) VH: QSLEESGGRLVTPGTPLTLTCTVSGFPLSAYAMIWVRQAPGKGLEWIGMIIRSGTVYYANWAKGRFTISKTSTTVDLKITSPTTEDTATYFCARRHYNADGYPIGIGDLWGPGTLVTVSS VL: AQVLTQTPSSVSAVVGGTVTISCQSSESVYSNNRLSWFQQKPGQPPKLLIYSASTLASGVPSRFKGSGSGTQFTLTITDLECDDAATYFCQGEFSCSSVDCFSFGGGTEVVVKG
Result block: 3.3
